What follows is a collection of pIC50 values obtained with Epidermal growth factor receptor (Homo sapiens, UniProt P00533, 746-750DEL).
Sequence (P00533 whole entry, looked up, stated change not applied): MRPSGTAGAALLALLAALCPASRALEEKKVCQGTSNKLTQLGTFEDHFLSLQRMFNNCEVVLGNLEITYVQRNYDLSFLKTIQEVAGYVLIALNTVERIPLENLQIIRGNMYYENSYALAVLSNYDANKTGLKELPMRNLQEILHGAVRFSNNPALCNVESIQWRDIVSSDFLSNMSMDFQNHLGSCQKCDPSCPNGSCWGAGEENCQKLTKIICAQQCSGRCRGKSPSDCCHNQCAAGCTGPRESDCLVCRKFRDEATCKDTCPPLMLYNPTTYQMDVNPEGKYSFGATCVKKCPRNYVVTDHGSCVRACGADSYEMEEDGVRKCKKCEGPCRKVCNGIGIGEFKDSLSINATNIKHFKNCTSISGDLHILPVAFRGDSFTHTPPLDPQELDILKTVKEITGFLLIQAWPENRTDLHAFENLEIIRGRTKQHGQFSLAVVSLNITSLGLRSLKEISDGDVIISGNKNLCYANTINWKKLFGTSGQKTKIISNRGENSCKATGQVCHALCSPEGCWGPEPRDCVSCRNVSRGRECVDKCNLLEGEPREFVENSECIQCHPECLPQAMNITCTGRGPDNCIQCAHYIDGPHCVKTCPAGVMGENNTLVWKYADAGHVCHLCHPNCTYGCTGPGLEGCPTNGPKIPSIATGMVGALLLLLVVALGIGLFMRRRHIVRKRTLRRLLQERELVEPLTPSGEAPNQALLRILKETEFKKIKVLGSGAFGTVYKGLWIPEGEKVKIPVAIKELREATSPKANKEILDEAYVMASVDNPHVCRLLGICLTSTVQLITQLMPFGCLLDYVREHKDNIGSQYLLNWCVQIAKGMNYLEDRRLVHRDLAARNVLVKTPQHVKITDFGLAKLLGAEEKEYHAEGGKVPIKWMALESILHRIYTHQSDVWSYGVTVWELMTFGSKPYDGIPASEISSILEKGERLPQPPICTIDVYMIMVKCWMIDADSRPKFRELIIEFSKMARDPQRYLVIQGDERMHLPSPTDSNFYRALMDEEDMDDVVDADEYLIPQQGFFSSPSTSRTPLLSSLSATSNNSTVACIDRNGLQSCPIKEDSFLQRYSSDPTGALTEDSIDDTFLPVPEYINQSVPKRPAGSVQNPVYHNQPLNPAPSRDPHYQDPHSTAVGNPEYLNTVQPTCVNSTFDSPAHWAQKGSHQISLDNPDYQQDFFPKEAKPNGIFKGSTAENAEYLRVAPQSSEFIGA
# pIC50 = -log10(concentration in molar units)

Some compounds with recorded pIC50:
>>> result_number("CC(C)n1nc(N2CC(CO)C2)c2cnc(Nc3ccnc(-c4cnn(S(=O)(=O)C5CC5)c4)n3)cc21")
7.55
>>> result_number("CC(C)n1nc(N2CC(C(C)(C)O)C2)c2cnc(Nc3ccnc(-c4cnn(S(=O)(=O)C5CC5)c4)n3)cc21")
6.89

For the next question, use this compound.
query: Short answer please: pIC50, Epidermal growth factor receptor (Homo sapiens, UniProt P00533, 746-750DEL), entry CC(C)n1nc(N)c2cnc(Nc3ccnc(-c4cnn(S(=O)(=O)C5CC5)c4)n3)cc21
result: 7.10
